molecular target: EML4-ALK-BaF3 (Homo sapiens, UniProt Q9UM73); construct: expressed in transfected cells; host or cells: Ba/F3 cells; the other entry of the earlier key: EML4 (Q9HC35, Echinoderm microtubule-associated protein-like 4); assay: Growth inhibition of EML4-ALK transformed BaF3 cells (MTS); type: cell-based; conditions: EML4-ALK-BaF3 cells, 48 hours, MTS; Table 12
Sequence (Q9UM73 1058-1620 limits assumed): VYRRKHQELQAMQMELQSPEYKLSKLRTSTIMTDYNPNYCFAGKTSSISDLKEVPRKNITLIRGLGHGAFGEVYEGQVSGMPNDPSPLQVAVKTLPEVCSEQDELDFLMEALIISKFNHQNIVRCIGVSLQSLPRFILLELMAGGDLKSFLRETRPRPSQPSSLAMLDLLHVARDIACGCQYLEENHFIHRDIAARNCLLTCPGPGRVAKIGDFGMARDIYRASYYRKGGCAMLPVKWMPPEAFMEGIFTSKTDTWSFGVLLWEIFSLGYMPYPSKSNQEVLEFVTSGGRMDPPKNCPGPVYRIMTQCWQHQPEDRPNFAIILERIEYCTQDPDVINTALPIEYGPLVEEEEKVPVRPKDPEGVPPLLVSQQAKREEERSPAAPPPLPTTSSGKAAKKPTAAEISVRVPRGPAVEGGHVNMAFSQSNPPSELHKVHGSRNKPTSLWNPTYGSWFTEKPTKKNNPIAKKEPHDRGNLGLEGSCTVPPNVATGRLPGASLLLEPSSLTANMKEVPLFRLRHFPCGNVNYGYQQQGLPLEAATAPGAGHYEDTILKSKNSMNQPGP
outcomeMeasure: IC50

| molSmiles | outcomeMeasure | testValue |
| --- | --- | --- |
| COc1cc(N2CCN(C)CC2)ccc1Nc1nc(NCc2ccccc2SC(C)C)c2c(ccn2C)n1 | IC50 | ~865 nM |
| COc1cc(N2CCC(N3CCN(C)CC3)CC2)ccc1Nc1nc(NCc2ccccc2S(C)(=O)=O)c2c(ccn2C)n1 | IC50 | ~3150 nM |
| CCOc1cc(C(=O)N2CCC(N3CCN(C)CC3)CC2)ccc1Nc1nc(Nc2ccccc2S(=O)(=O)C(C)C)c2c(ccn2C)n1 | IC50 | 783 nM |
| CCOc1cc(N2CCC(O)CC2)ccc1Nc1nc(Nc2ccccc2S(=O)(=O)C(C)C)c2c(ccn2C)n1 | IC50 | 1600 nM |
| CC(C)S(=O)(=O)c1ccccc1Nc1nc(Nc2ccc(N3CCN(C)CC3)cc2)nc2ccn(C)c12 | IC50 | ~1130 nM |
| COC(=O)c1ccccc1Oc1nc(Nc2ccc(N3CCC(N4CCN(C)CC4)CC3)cc2OC)nc2ccn(C)c12 | IC50 | ~2590 nM |
| CC(C)S(=O)(=O)c1ccccc1CNc1nc(Nc2ccc(S(N)(=O)=O)cc2)nc2ccn(C)c12 | IC50 | > 10000 nM |
| CC(C)Sc1ccccc1CNc1nc(Nc2ccc(S(N)(=O)=O)cc2)nc2ccn(C)c12 | IC50 | > 10000 nM |
| COC(=O)c1ccccc1Nc1nc(Nc2ccc(N3CCC(N4CCN(C)CC4)CC3)cc2OC)nc2ccn(C)c12 | IC50 | ~3880 nM |
| COC(=O)c1ccccc1Oc1nc(Nc2ccc(N3CCC(O)CC3)cc2)nc2ccn(C)c12 | IC50 | > 10000 nM |
| CCOc1cc(C(=O)N2CCC(N3CCN(C)CC3)CC2)ccc1Nc1nc(Nc2ccccc2SC)c2c(ccn2C)n1 | IC50 | ~877 nM |
| COc1cc(N2CCN(C)CC2)ccc1Nc1nc(Nc2ccccc2S(C)(=O)=O)c2c(ccn2C)n1 | IC50 | 3530 nM |
| CCOc1cc(N2CCC(O)CC2)ccc1Nc1nc(Nc2ccccc2S(C)(=O)=O)c2c(ccn2C)n1 | IC50 | > 10000 nM |
| COC(=O)c1ccccc1Oc1nc(Nc2ccc(N3CCN(C)CC3)cc2OC)nc2ccn(C)c12 | IC50 | ~5750 nM |
| COC(=O)c1ccccc1Nc1nc(Nc2ccc(N3CCC(O)CC3)cc2)nc2ccn(C)c12 | IC50 | 4260 nM |
| COc1cc(N2CCN(C)CC2)ccc1Nc1nc(Nc2ccccc2SC)c2c(ccn2C)n1 | IC50 | ~909 nM |
| Cc1cc(Nc2nc(Nc3ccccc3S(=O)(=O)C(C)C)c3c(ccn3C)n2)c(OC(C)C)cc1C1CCN(C)CC1 | IC50 | 1760 nM |
